Target: Epidermal growth factor receptor (Homo sapiens, UniProt P00533, L858R/T790M)
Sequence (P00533 25-1210 T790M/L858R limits assumed): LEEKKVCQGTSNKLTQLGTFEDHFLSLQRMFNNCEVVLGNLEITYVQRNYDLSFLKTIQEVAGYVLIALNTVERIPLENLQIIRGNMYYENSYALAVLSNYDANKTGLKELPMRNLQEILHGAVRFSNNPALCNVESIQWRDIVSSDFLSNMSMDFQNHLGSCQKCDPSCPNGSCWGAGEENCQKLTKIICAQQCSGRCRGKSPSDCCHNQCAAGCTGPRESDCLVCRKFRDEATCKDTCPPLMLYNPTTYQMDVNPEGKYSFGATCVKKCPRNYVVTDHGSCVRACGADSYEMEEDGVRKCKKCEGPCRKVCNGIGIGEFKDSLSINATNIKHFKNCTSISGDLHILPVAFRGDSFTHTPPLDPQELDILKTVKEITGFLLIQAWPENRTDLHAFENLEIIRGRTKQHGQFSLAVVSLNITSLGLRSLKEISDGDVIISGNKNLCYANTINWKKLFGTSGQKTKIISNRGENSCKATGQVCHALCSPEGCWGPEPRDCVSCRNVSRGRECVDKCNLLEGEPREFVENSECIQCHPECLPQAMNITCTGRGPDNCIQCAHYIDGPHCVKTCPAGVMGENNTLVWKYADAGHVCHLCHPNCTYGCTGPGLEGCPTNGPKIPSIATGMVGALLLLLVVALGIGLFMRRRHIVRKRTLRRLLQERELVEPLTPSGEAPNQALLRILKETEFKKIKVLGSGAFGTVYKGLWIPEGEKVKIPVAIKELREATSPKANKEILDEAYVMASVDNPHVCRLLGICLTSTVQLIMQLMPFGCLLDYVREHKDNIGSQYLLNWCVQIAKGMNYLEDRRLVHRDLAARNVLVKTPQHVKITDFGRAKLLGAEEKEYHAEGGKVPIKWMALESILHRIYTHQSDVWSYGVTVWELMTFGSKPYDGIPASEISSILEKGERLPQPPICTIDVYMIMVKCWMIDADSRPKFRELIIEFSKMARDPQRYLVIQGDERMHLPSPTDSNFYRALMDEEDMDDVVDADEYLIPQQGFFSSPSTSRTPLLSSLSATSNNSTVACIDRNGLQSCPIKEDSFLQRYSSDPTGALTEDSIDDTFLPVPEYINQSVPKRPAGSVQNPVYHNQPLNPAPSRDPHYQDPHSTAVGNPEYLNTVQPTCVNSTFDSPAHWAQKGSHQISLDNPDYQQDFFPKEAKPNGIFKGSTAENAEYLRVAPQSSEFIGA
Assay: Inhibition of EGFR L858R/T790M double mutant (unknown origin) measured after 60 mins by ADP-Glo kinase based luminescence assay
// reported pIC50 per item
When answering, recall that pIC50 equals minus log10 of the concentration in mol/L, and write that number alone.

Answered cases to consult:
>>> measurement("O=C(CN1CCOCC1)Nc1ccc(Nc2ncc(Cl)c(Nc3ccccc3C(=O)NO)n2)cc1")
6.95
>>> measurement("CNC(=O)c1ccccc1Nc1nc(Nc2ccc(NC(=O)CN3CCOCC3)c(C)c2)ncc1Cl")
8.41

// moving on: another record for pIC50
Q: Look up pIC50 of O=C(NO)c1ccccc1Nc1nc(Nc2ccc(OCCCN3CCOCC3)cc2)ncc1Cl and report it.
Result: 7.19
